test: label from the status in PepcDB records
quantityMeasured: protein production

INSERT INTO measurements (recordsequence, endpointresult) VALUES
  ('MIMRKFASRVKDIQLSEIRKIFEVADEDTINLGIGEPDFSVPDHVREAVKDAVDEGLTHYTSNMGMEELREAIADKLKSENRVHAEPESIIVTVGASEAIFMCTQALLDIGDHALIPDPGFLSYDACVRLSGAVSIPVPLSMDEGFSMSPERVESLITQDTRVIIMNSPSNPTGSVMGKDDVKGIAEIAEDNDLIIISDEIYEKIIYDGKHYSPAQFTDNALIVNGFSKTYAMTGLRIGYVAGCEDIIEELLKVHQYNTACAPSISQYAALAAIRGPQNCVKDMVDEFRRRRDLMFRSLTDMGLECVLPGGAFYMFPYAGDSEEFTKLSLEAGVAVVPGSAFGNEGKGYIRMSYATSYELIEEAMERLKTVCGV', 'failed'),
  ('MSVIKIEKALKLDKVIFVDVRTEGEYEEDHILNAINMPLFKNNEHNEVGTIYKMQGKHEAIQKGFDYVSYKLKDIYLQAAELALNYDNIVIYCARGGMRSGSIVNLLSSLGVNVYQLEGGYKAYRNFVLEYLRHVMDTK', 'not failed'),
  ('MPALSGLHLAPSVASFLCLAWTVALYFAVKPLYQRLPRIWLSPAIVVPALTIPLLLITGIPYAEYVADTRWMVWLLGPATIAFAVPIYEHREIVRRHWIALALGVIAGMLVAMLSARLLAEAFHFSSEVSSSLMARSVSTPFAVAVVAHTGGSAELVSLFTVMTGLAGMIVGDTVLGLLRLRSPVAQGASLGTAAHGFGTARARQRHAEEGVVASLTMVLAGVLMVIAGPTLTGWVTALVG', 'failed'),
  ('MLDSFEILKALKSLDLLKNAPSWWWPNALKFEALLGAVLTQNTKFEAVLKSLENLKNAFILENDDEINLKKIAYIEFSKLAECVRPSGFYNQKAKRLIDLSKNILKDFQSFENFKQEVTREWLLNQKGVGKESADAILCYVCAKEVMVVDKYSYLFLKKIGIEIEDYDELQHFFEKGVQENLNSALALYENTIPLAQLYARFHGKIVEFSKQKLELKL', 'failed'),
  ('METNKNFAVIGLGEFGSRICEVLVDGGASVVAFDHDIQAVERIKKIVPAAMLVETTNEEALLKAPLDDVEVAIVAIGNNIEASVLTTTLLKQRDIPYVLARAVSPLHATVLRRVGANEVLNIEISAATRIARRLISPDVMDSIAVTKDFSIREIIVPKFFIGKTVGSVALKEKFNITLIALVRMALDIDSVGNPVKQEVMHYPEDDFELREGDKLFLIGSNIKLEEFRNM', 'failed'),
  ('MGKSDFIKVNVSNSHNDAVAFEVKLAKDLTVAQLKTKLEILTGGCAGTMKVQVFKGDTCVSTMDNNDAQLGYYANSDGLRLHVVDS', 'not failed'),
  ('EELQALVDNIPAAIYHLDVSGQATIRFRPPAFLKTLVSEHAGTTRLNTLSMIHHDDRHMLSNAYSKLREAKHSLTLVYRIVTPEGKLHWIEDHMRSSFSDDGLFSGIDGILCEVT', 'not failed');
